Would you kindly list remaining activity at 1 µM for each of these molecules?
Biological target: RalA (Homo sapiens, UniProt P11233)
Construct: expressed in transfected cells; host or cells: HepG2 (from b6; the methods paragraph names no cell line)
Sequence (P11233 1-203 limits assumed): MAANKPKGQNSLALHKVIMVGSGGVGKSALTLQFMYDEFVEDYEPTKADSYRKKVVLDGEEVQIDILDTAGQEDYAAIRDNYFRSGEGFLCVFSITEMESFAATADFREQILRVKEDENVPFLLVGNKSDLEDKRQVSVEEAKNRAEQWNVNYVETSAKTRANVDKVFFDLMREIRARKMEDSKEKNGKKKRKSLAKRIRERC
Experiment: ELISA-based RalA activity assay (RalBP1-coated plates, lysates of compound-treated cells)
Format: biochemical
Details: 1 μM compound; % control = activity remained
Lab book: enter the figure in %, no units written.

If you can, please state the reported remaining activity at 1 µM value of Cc1ccc(-n2nc(C)c3c2OC(NS(=O)(=O)c2ccc(C)cc2)=C(C#N)C3c2ccccc2)cc1 (centres unmarked) [4ae] .
79

Would you kindly share the measured remaining activity at 1 µM for Cc1ccc(S(=O)(=O)NC2=C(C#N)C(c3ccc(F)cc3)c3c(C)nn(-c4ccccc4)c3O2)cc1 (centres unmarked) [4e] ?
74

What does the record list as remaining activity at 1 µM for Cc1ccc(S(=O)(=O)NC2=C(C#N)C(c3ccccc3)c3c(C)nn(-c4ccccc4)c3O2)cc1 (centres unmarked) [4a] ?
74

Look at this molecule and give its reported remaining activity at 1 µM. Cc1ccc(S(=O)(=O)NC2=C(C#N)C(c3ccco3)c3c(C)nn(-c4ccccc4)c3O2)cc1 (centres unmarked) [4j]
57

Given the entry Cc1ccc(S(=O)(=O)NC2=C(C#N)C(c3ccccc3)c3c(C)nn(-c4ccc(F)cc4)c3O2)cc1 (centres unmarked) [4ag] , report its measured remaining activity at 1 µM.
66

* * *

Field: melting point. Provide a value for each of the molecules that follow.

Given the molecule Cc1ccc(S(=O)(=O)NC2=C(C#N)C(c3ccccc3)c3c(C)nn(-c4ccc(F)cc4)c3O2)cc1 (stereo not shown) , what is its reported melting point?
138.6 to 139.3 °C

Which measured melting point value corresponds to Cc1ccc(S(=O)(=O)NC2=C(C#N)C(c3ccc(F)cc3)c3c(C)nn(-c4ccccc4)c3O2)cc1 (stereo not shown) ?
113 to 113.5 °C

So what does the record say about melting point for Cc1ccc(S(=O)(=O)NC2=C(C#N)C(c3ccco3)c3c(C)nn(-c4ccccc4)c3O2)cc1 (stereo not shown) ?
153.8 to 154.3 °C

Query: melting point; subject: Cc1ccc(S(=O)(=O)NC2=C(C#N)C(c3ccccc3)c3c(C)nn(-c4ccccc4)c3O2)cc1 (stereo not shown)
68.3 to 69.7 °C

Record request: melting point value, item Cc1ccc(S(=O)(=O)NC2=C(C#N)C(c3cccc(Br)c3)c3c(C)nn(-c4ccccc4)c3O2)cc1 (stereo not shown)
68.4 to 69.5 °C

Data request, read-out melting point, for COc1cccc(C2C(C#N)=C(NS(=O)(=O)c3ccc(C)cc3)Oc3c2c(C)nn3-c2ccccc2Cl)c1 (stereo not shown)
66.4 to 67.7 °C

For the molecule shown here, Cc1nn(-c2ccccc2)c2c1C(c1ccc(C(F)(F)F)cc1)C(C#N)=C(NS(=O)(=O)c1cccs1)O2 (stereo not shown) , give the reported melting point.
55.9 to 56.7 °C
